Property: Population Apoptotic (%); scope: individual molecules
Tested on: U2OS
test: Multiplex assay against U2OS
Format: toxicity, cell-based
reported-conditions: human, 12 h, 1 µM, compound concentration 1 uM, replicate 1
result-type: Population Apoptotic (%)

molecule="CN1CCN2c3ncccc3Cc3ccccc3C2C1 (centres undefined)" observed_value=82
molecule="Cl.Clc1ccc2nsnc2c1NC1=NCCN1 [TIZANIDINE HYDROCHLORIDE]" observed_value=82
molecule=CN(C)c1ccnc2sc3c(=O)n(N4CCCCCC4)cnc3c12 observed_value=81
molecule=O=C(NCC(=O)N1CC[C@H](N[C@H]2CC[C@@](O)(c3ccc(-c4ncccn4)cn3)CC2)C1)c1cccc(C(F)(F)F)c1 observed_value=79

###

Tested on: U2OS
test: Multiplex assay against U2OS
Assay type: toxicity, cell-based
reported-conditions: human, 48 h, 10 µM, compound concentration 10 uM, replicate 1
Could you mark each record Met if its Population Tubulin-Different-Phenotype (%) falls strictly under 6%, and Not met if it equals or exceeds it?

molecule="CSc1ccccc1N1CCN(CCCCCC(=O)NC2CCCc3ccccc32)CC1.Cl (stereo not given)" classification="Not met"
molecule=CCCn1c(=O)c2[nH]c(C3CCCC3)nc2n(CCC)c1=O classification=Met
molecule="CNC[C@H](O)c1ccc(O)c(O)c1 [EPINEPHRINE]" classification="Not met"
molecule="Cc1ccc(C(C)(O)c2nc3ccccc3s2)c(C)c1 (stereo not given)" classification=Met
molecule=Cc1nc2ccc(Oc3ccc(F)cc3)cc2c(=O)n1C[C@H]1CCCN(C(C)C)C1.Cl classification="Not met"
molecule=COc1c(C)cc(NC(=O)c2nn(Cc3ccc(F)cc3)c3c2CN(C(=O)c2ccc[nH]2)C[C@]3(C)C(N)=O)cc1C classification="Not met"
molecule=COc1cc(C(=O)N(CCCc2ccccc2)Cc2ccc(CC(=O)O)cc2)cc(OC)c1C classification=Met
molecule=O=C(O)c1cc2ccccc2c(Cc2c(O)c(C(=O)O)cc3ccccc23)c1O classification=Met
molecule=Cc1ccc(F)cc1C(=O)Nc1ccc(C(=O)N2Cc3cccn3Cc3ccccc32)c(Cl)c1 classification="Not met"

###

Tested on: HEK-293T
test: Multiplex assay against HEK293T
Assay type: toxicity, cell-based
reported-conditions: human, 12 h, 1 µM, compound concentration 1 uM, replicate 1
result-type: Total Cell Count

line_notation=O=C(NCCO)c1cccc(-c2cc(Nc3ccc(OC(F)(F)F)cc3)ncn2)c1 observed_value=409
line_notation=O=C(NCC(=O)N1CC[C@H](N[C@H]2CC[C@@](O)(c3ccc(-c4ncccn4)cn3)CC2)C1)c1cccc(C(F)(F)F)c1 observed_value=393
line_notation=O=C1COc2nccc(-c3ccccc3F)c2CN1Cc1cc(C(F)(F)F)cc(C(F)(F)F)c1 observed_value=397

###

System: HEK-293T
test: Multiplex assay against HEK293T
Assay type: toxicity, cell-based
reported-conditions: human, 12 h, 10 µM, compound concentration 10 uM, replicate 2
result-type: Population Fragmented Nuclei (%)

line_notation=Cc1nc2ccc(Oc3ccc(F)cc3)cc2c(=O)n1C[C@H]1CCCN(C(C)C)C1.Cl observed_value=8
line_notation=CCCn1c(=O)c2[nH]c(C3CCCC3)nc2n(CCC)c1=O observed_value=7
line_notation=CCCC(CCC)C(=O)O observed_value=7
line_notation=O=C(NCC(=O)N1CC[C@H](N[C@H]2CC[C@@](O)(c3ccc(-c4ncccn4)cn3)CC2)C1)c1cccc(C(F)(F)F)c1 observed_value=3
line_notation=COc1c(C)cc(NC(=O)c2nn(Cc3ccc(F)cc3)c3c2CN(C(=O)c2ccc[nH]2)C[C@]3(C)C(N)=O)cc1C observed_value=6
line_notation=CC[C@H]1OC(=O)[C@H](C)[C@@H](O[C@H]2C[C@@](C)(OC)[C@@H](O)[C@H](C)O2)[C@H](C)[C@@H](O[C@@H]2O[C@H](C)C[C@H](N(C)C)[C@H]2O)[C@@]2(C)CC(C)=C(O2)[C@H](C)[C@@H](O)[C@]1(C)O observed_value=11

###

Tested on: U2OS
test: Multiplex assay against U2OS
Type: toxicity, cell-based
reported-conditions: human, 24 h, 10 µM, compound concentration 10 uM, replicate 1
Could you mark each record true (1) if its Population Fragmented Nuclei (%) falls strictly under 20%, and false (0) if it equals or exceeds it?

compound=Cc1ccc(/C(=C\CN2CCCC2)c2ccccn2)cc1 classification="false (0)"
compound=Oc1c(CN2CCN(c3ccccn3)CC2)cc(Cl)c2cccnc12 classification="false (0)"
compound="O=S(=O)(c1ccccc1)c1cnc2c(N3CCNCC3)cccc2c1 [INTEPIRDINE]" classification="false (0)"
compound="CNC[C@H](O)c1ccc(O)c(O)c1 [EPINEPHRINE]" classification="false (0)"
compound=CCCn1c(=O)c2[nH]c(C3CCCC3)nc2n(CCC)c1=O classification="false (0)"
compound=O=C(O)c1cc2ccccc2c(Cc2c(O)c(C(=O)O)cc3ccccc23)c1O classification="true (1)"
compound=C[C@H](NC(=O)c1c(C(F)F)nn(C)c1Oc1cccc(C(F)(F)F)c1)c1ccc(C(=O)O)cc1 classification="true (1)"
compound=O=C(O)Cc1ccccc1Nc1c(Cl)cccc1Cl classification="true (1)"
compound="COc1ccc2c(c1)C(C(=O)N(Cc1ccc(N(C)C)cc1)c1ccc(C(C)C)cc1)CCC2.Cl (stereo unspecified)" classification="false (0)"
compound=Cc1ccc(-c2ccc(F)cc2COc2ccc(CCC(=O)O)cc2)cc1 classification="false (0)"
compound=CN1CCN(c2nc3cc(C(F)(F)F)ccc3n3cccc23)CC1.O=C(O)/C=C\C(=O)O.O=C(O)/C=C\C(=O)O classification="false (0)"

###

Test system: U2OS
test: Multiplex assay against U2OS
Format: toxicity, cell-based
reported-conditions: human, 24 h, 1 µM, compound concentration 1 uM, replicate 1
result-type: Population Normal (%)

compound=CCOc1c2c(c(OCC)c3ncccc13)CN(c1ccc(CS(=O)(=O)NC(=O)Cc3ccccc3OC)cc1C)C2=O result_type="Population Normal (%)" observed_value=96%
compound=c1cc(OCCCN2CCCCC2)ccc1CN1CCCCC1 result_type="Population Normal (%)" observed_value=98%
compound="CSc1ccccc1N1CCN(CCCCCC(=O)NC2CCCc3ccccc32)CC1.Cl (stereo not drawn)" result_type="Population Normal (%)" observed_value=94%

###

System: U2OS
test: Multiplex assay against U2OS
Assay type: toxicity, cell-based
reported-conditions: human, 48 h, 1 µM, compound concentration 1 uM, replicate 2
result-type: Population Fragmented Nuclei (%)

compound="CNC[C@H](O)c1ccc(O)c(O)c1 [EPINEPHRINE]" observed_value=18
compound=CCOc1c2c(c(OCC)c3ncccc13)CN(c1ccc(CS(=O)(=O)NC(=O)Cc3ccccc3OC)cc1C)C2=O observed_value=17
compound=CCCn1c(=O)c2[nH]c(C3CCCC3)nc2n(CCC)c1=O observed_value=17
compound=CN(C)c1ccnc2sc3c(=O)n(N4CCCCCC4)cnc3c12 observed_value=15
compound=CN(C)CCCc1cc(C(=O)Nc2ccc(-c3ccncc3)cc2)ccc1O.Cl.Cl observed_value=15
compound=N[C@@]1(C(=O)O)CO[C@H]2[C@H](C(=O)O)[C@H]21 observed_value=15
compound="CSc1ccccc1N1CCN(CCCCCC(=O)NC2CCCc3ccccc32)CC1.Cl (centres undefined)" observed_value=28
compound=COc1cc(C(=O)N(CCCc2ccccc2)Cc2ccc(CC(=O)O)cc2)cc(OC)c1C observed_value=22
compound=O=C(NCCO)c1cccc(-c2cc(Nc3ccc(OC(F)(F)F)cc3)ncn2)c1 observed_value=20

###

Tested on: HEK-293T
test: Multiplex assay against HEK293T
Format: toxicity, cell-based
reported-conditions: human, 48 h, 1 µM, compound concentration 1 uM, replicate 2
result-type: Population Healthy Nuclei (%)

compound="C[C@@H]1C[C@H]2[C@@H]3CCC4=CC(=O)C=C[C@]4(C)[C@@]3(F)[C@@H](O)C[C@]2(C)[C@@]1(O)C(=O)CO [DEXAMETHASONE]" result_type="Population Healthy Nuclei (%)" observed_value=78
compound="CC(C)(C)c1ccc(S(=O)(=O)Nc2ccc(Cl)cc2C(=O)c2cc[n+]([O-])cc2)cc1 [VERCIRNON]" result_type="Population Healthy Nuclei (%)" observed_value=81
compound="CN1CCN2c3ncccc3Cc3ccccc3C2C1 (configuration not stated) [MIRTAZAPINE]" result_type="Population Healthy Nuclei (%)" observed_value=80
compound="O=C(O)Cc1ccccc1Nc1c(Cl)cccc1Cl [DICLOFENAC]" result_type="Population Healthy Nuclei (%)" observed_value=79
compound="N#Cc1c(N)nc(SCc2csc(-c3ccc(Cl)cc3)n2)c(C#N)c1-c1ccc(OCCO)cc1 [CAPADENOSON]" result_type="Population Healthy Nuclei (%)" observed_value=80
compound=CCOc1c2c(c(OCC)c3ncccc13)CN(c1ccc(CS(=O)(=O)NC(=O)Cc3ccccc3OC)cc1C)C2=O result_type="Population Healthy Nuclei (%)" observed_value=83
compound="C[C@H](NC(=O)c1c(C(F)F)nn(C)c1Oc1cccc(C(F)(F)F)c1)c1ccc(C(=O)O)cc1 [PALUPIPRANT]" result_type="Population Healthy Nuclei (%)" observed_value=78
